Cited source: BindingDB's records for patent US20250313563

Biological target: Glycogen synthase kinase-3 beta (Homo sapiens)
Sequence (P49841 whole entry): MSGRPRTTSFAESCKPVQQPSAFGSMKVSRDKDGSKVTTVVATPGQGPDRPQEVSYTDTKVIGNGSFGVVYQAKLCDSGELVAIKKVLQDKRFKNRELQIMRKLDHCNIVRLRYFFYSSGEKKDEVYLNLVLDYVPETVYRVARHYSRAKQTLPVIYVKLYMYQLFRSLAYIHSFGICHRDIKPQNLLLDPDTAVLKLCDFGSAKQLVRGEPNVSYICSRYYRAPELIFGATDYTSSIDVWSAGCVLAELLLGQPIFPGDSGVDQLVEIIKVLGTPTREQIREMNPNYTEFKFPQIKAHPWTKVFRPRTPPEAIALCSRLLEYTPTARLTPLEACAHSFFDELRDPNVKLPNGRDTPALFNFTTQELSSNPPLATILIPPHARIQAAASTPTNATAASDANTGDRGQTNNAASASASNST
Below, each entry is listed alongside its reported IC50.

CC(C)(C)CC1N=NC2=C1[C@](C)(c1cc(S(C)(=O)=O)ccc1F)C1=C(CC(C)(C)CC1=O)N2 (stereo partly specified)	100 to 1000 nM
CC1(C)CC(=O)C2=C(C1)NC1N=NC=C1C21CCCN(c2ccncc2)CC1 (stereo unspecified)	> 5000 nM
CC[C@@]1(c2cccc(C(F)(F)F)c2)C2=CN=NC2NC2=C1C(=O)N(CCOC)CC2 (stereo partly specified)	> 5000 nM
CC1(C)CC(=O)C2=C(C1)NC1=C(CN=N1)[C@@]2(C)c1cc(C(F)(F)F)ccc1F	> 5000 nM
CCC1(c2cccc(S(=O)(=O)CCOC)c2)C2=CN=NC2NC2=C1C(=O)CC(C)(C)C2 (stereo unspecified)	< 100 nM

Attention now shifts to the item below.
IC50 for Glycogen synthase kinase-3 beta (Homo sapiens) with input CC[C@@]1(c2cccc(C(F)(F)F)c2)C2=CN=NC2NC2=C1C(=O)N[C@H](C(C)(C)C)C2 (stereo partly specified) equals 100 to 1000 nM

---

So I've got IC50 readings for UniProt:P49840, take a look.
Sequence (P49840 whole entry): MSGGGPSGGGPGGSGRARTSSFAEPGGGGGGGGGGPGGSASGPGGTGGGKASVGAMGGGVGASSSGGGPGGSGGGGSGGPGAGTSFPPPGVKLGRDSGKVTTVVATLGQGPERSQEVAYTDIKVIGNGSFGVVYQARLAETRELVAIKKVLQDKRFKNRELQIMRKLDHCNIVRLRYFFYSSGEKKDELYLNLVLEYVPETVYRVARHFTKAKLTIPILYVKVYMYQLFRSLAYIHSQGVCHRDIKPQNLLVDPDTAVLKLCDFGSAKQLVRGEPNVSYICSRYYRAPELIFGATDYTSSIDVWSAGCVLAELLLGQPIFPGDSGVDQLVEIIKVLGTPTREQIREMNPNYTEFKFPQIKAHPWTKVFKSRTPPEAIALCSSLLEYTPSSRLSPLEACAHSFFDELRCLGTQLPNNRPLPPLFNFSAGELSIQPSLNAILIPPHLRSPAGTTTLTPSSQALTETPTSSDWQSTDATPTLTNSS

// below: answered molecules
CC[C@@]1(c2cccc(-c3ccnn3C)c2)C2=CN=NC2NC2=C1C(=O)NC1(CCOCC1)C2 (stereo partly drawn)	1000 to 5000 nM
CC[C@]1(c2cccc(-c3cnn(C)c3)c2)C2=CN=NC2NC2=C1C(=O)C[C@@H](C)C2 (stereo partly drawn)	100 to 1000 nM
CC[C@@]1(c2cccc(-c3cnn(-c4ccncc4)c3)c2)C2=CN=NC2NC2=C1C(=O)NC(C)(C)C2 (stereo partly drawn)	100 to 1000 nM
CCn1nccc1-c1cccc([C@@]2(CC)C3=CN=NC3NC3=C2C(=O)CC(C)(C)C3)c1 (stereo partly drawn)	100 to 1000 nM
Cc1ccccc1C(=O)N1CC2(C1)CC1(CO2)C2=C(N=NC2)NC2=C1C(=O)CC(C)(C)C2 (stereo not drawn)	< 100 nM

IC50 for UniProt:P49840 with input CCC1(c2cccc(S(=O)(=O)CC3CC3)c2)C2=C(CC(C)(C)NC2=O)NC2N=NC(C)=C21 (stereo not drawn) equals < 100 nM

IC50 for UniProt:P49840 with input CC[C@]1(c2cccc(-c3ccnn3C3CC3(F)F)c2)C2=CN=NC2NC2=C1C(=O)NC(C)(C)C2 (stereo partly drawn) equals 100 to 1000 nM

IC50 for UniProt:P49840 with input CC[C@]1(c2cccc(-c3cc(OC)ncc3F)c2)C2=CN=NC2NC2=C1C(=O)CC(C)(C)C2 (stereo partly drawn) equals 1000 to 5000 nM

---

pIC50: −log10 of the molar value.
So I've got pIC50 readings for Glycogen synthase kinase-3 beta (Homo sapiens, UniProt P49841), take a look.

CCC1(c2cccc(-c3nc(C)ncc3C)c2)C2=CN=NC2NC2=C1C(=O)CC(C)(C)C2 (stereo unspecified)	6.00 to 7.00

pIC50 for Glycogen synthase kinase-3 beta (Homo sapiens, UniProt P49841) with input CC[C@]1(c2cccc(-c3ccncc3F)c2)C2=C(CC(C)(C)NC2=O)NC2N=NC(C)=C21 (stereo partly specified) equals 5.30 to 6.00

pIC50 for Glycogen synthase kinase-3 beta (Homo sapiens, UniProt P49841) with input CC[C@]1(c2cccc(-c3ccncc3C)c2)C2=CN=NC2NC2=C1C(=O)N[C@]1(CCOC1)C2 (stereo partly specified) equals > 7.00

pIC50 for Glycogen synthase kinase-3 beta (Homo sapiens, UniProt P49841) with input CC[C@@]1(c2cccc(C(F)(F)F)c2)C2=CN=NC2NC2=C1C(=O)N(c1ccc(F)cc1)CC2 (stereo partly specified) equals < 5.30

pIC50 for Glycogen synthase kinase-3 beta (Homo sapiens, UniProt P49841) with input CC[C@@]1(c2cccc(C(F)(F)F)c2)C2=CN=NC2NC2=C1C(=O)N(C)CC2 (stereo partly specified) equals < 5.30

pIC50 for Glycogen synthase kinase-3 beta (Homo sapiens, UniProt P49841) with input CC[C@@]1(c2cccc(NS(C)(=O)=O)c2)C2=CN=NC2NC2=C1C(=O)CC(C)(C)C2 (stereo partly specified) equals > 7.00
